Listed molecules paired with reported GI50
- System: HCT-116
- protocol-details: Anticancer activity against human HCT-116 cells assessed as cell growth inhibition incubated for 48 hrs by SRB assay
- Format: functional
readout: GI50 (µM)

> print(dat)
                         chemical.structure  target.under.test  readout  unit.string  observed
1  NS(=O)(=O)c1ccc(Nc2nc(N/N=C/c3ccccn3)nc(Nc3ccccc3)n2)cc1            HCT-116     GI50           µM      0.39
2  Cc1nn(-c2ccccc2)cc1/C=N/Nc1nc(Nc2ccccc2)nc(Nc2ccc(S(N)(=O)=O)cc2)n1            HCT-116     GI50           µM         2
3  NS(=O)(=O)c1ccc(Nc2nc(N/N=C/c3ccc(C(F)(F)F)cc3)nc(Nc3ccccc3)n2)cc1            HCT-116     GI50           µM       3.1
4                   O=c1[nH]cc(F)c(=O)[nH]1            HCT-116     GI50           µM      0.22

---

Listed compounds paired with reported inhibition of growth at 10 µM
- Test system: MCF7
- protocol-details: Anticancer activity against human MCF7 cells assessed as cell growth inhibition at 10 uM incubated for 48 hrs by SRB assay relative to control
- Format: functional
- stated-conditions: read-out: GI
readout: inhibition of growth at 10 µM (%)

> print(dat)
                         chemical.structure                        readout  unit.string  lt.gt.eq  observed
1  NS(=O)(=O)c1ccc(Nc2nc(N/N=C/c3ccc(C(F)(F)F)cc3)nc(Nc3ccccc3)n2)cc1  inhibition of growth at 10 µM            %         =        89
2  CCCCc1nc(/C=N/Nc2nc(Nc3ccccc3)nc(Nc3ccc(S(N)(=O)=O)cc3)n2)c(Cl)[nH]1  inhibition of growth at 10 µM            %         =        53
3  NS(=O)(=O)c1ccc(Nc2nc(N/N=C/c3cccc4ccccc34)nc(Nc3ccccc3)n2)cc1  inhibition of growth at 10 µM            %         =        46
4  NS(=O)(=O)c1ccc(Nc2nc(N/N=C/CCc3ccccc3)nc(Nc3ccccc3)n2)cc1  inhibition of growth at 10 µM            %         <        10
5  NS(=O)(=O)c1ccc(Nc2nc(N/N=C/c3ccc4c(c3)OCO4)nc(Nc3ccccc3)n2)cc1  inhibition of growth at 10 µM            %         =        81
6  NS(=O)(=O)c1ccc(Nc2nc(N/N=C/c3ccc([N+](=O)[O-])cc3)nc(Nc3ccccc3)n2)cc1  inhibition of growth at 10 µM            %         =        90
7  NS(=O)(=O)c1ccc(Nc2nc(N/N=C/c3ccccc3)nc(Nc3ccccc3)n2)cc1  inhibition of growth at 10 µM            %         =        46
8  CN(C)c1ccc(/C=N/Nc2nc(Nc3ccccc3)nc(Nc3ccc(S(N)(=O)=O)cc3)n2)cc1  inhibition of growth at 10 µM            %         =        40
